B1: Kinesin-like protein KIF16B, residues 1213 to 1273; numbered along this chain, Q96L93 (parent)
chain: ETWTVFRRYSRFREMHKTLKLKYAELAALEFPPKKLFGNKDERVIAERRSHLEKYLRDFFS

# Variants of: B1
# method: abundance fitness (aPCA) (normalised: wild type 0, dead -1); higher = more abundant; growth selection in yeast, the domain comes from the species named
# reported-conditions: Homo sapiens
reported-metric: abundance fitness
The reply should be a number, written without any unit.

See these solved cases before continuing.
{"variant-name": "S10C", "abundance fitness": 0.208}
{"variant-name": "K22Y", "abundance fitness": -0.354}
{"variant-name": "P32R", "abundance fitness": 0.139}
{"variant-name": "F6P", "abundance fitness": -0.227}
{"variant-name": "W3V", "abundance fitness": -0.521}

Problem: What value of abundance fitness has been reported for the following variant? E47R
Result: 0.099

Problem: What value of abundance fitness has been reported for the following variant? L56Q
Result: 0.163
